test method notes: Half life in rat at 5 mg/kg, iv
Type: ADME, organism-based
Design: dose 5 mg/kg, route intravenous
test conditions: in vivo
readout: half-life (min)

{"columns": ["test smiles", "recorded result"],
 "data": [
  ["Nc1ncc(-c2cc(Nc3cnc4ccccc4c3)nc(N3CCOCC3)n2)cn1", 43]
]}

[I] c1cncc(-c2cc(Nc3cnc4ccccc4c3)nc(N3CCOCC3)n2)c1
[II] Oc1cccc(-c2cc(Nc3cnc4ccccc4c3)nc(N3CCOCC3)n2)c1
[III] Nc1ccc(-c2cc(Nc3cnc4ccccc4c3)nc(N3CCOCC3)n2)cn1
Exercise: Reorder: half-life, max to min. Output spec: a listing of the labels in the requested order.
Solution: III, I, II
(III: 103 min, I: 55 min, II: 30 min)
